Assay: qHTS Primary assay for Inhibitors of Plasmodium falciparum Dd2 growth in vitro; further: nearly all actives have a fitted effect of over 65% in size
Settings: P. falciparum Dd2 growth, SYBR Green, 72 h; series mostly up to 28.9 µM
Among all 120,000 compounds or so, about 5,300 (4.4%) were called active. Roughly 22% stayed inconclusive and do not appear here. The call rests on the fitted dose curve; in most records, active means well fitted inhibition curve with a large enough effect; inconclusive means small, poorly fitted or top-dose-only effect; inactive means no such curve, though single readings can be large or run the other way. The list comes from a sample in which actives are over-represented; it also holds close analogues and randomly drawn compounds.
Labels: yes (active), no (inactive)

compound	label class
CC(C)c1cc(C(=O)NCc2cccnc2Oc2ccc(F)cc2F)on1	no
Cc1ccc(CN2CCc3nc(N4CCN(C)CC4)ncc3C2)cc1	no
Cc1noc([C@@H]2CN(S(=O)(=O)c3ccc4c(c3)CCC4)C[C@H]2C(N)=O)n1	no
O=C(Cc1ccsc1)N1CCC(Oc2ccccc2)C1 (centres undefined)	no
O=C(NCC1CC1)C1CCCN(C2CCN(Cc3ccncc3)CC2)C1 (centres undefined)	no
CN(CCc1noc(C2CN(C(=O)c3cc(F)ccc3F)C2)n1)C(=O)C1CC1	no
CC(C)(C)CC(=O)Nc1ccc2c(N3CCOCC3)ncnc2c1	no
O=C(Cc1ccc(Oc2ccccc2)cc1)N1CC(COc2ccccc2)C2(C1)CN(C(=O)c1cn[nH]c1)C2 (centres undefined)	no
O=C(c1ccc(F)cc1)N1CCC2(CN[S+](=O)([O-])c3ccccc3N2)C1 (centres undefined)	no
O=C(Nc1ccc2ncnc(N3CCCCC3)c2c1)c1ccc2c(c1)OCO2	no
CCN1CCN(c2ncc3c(n2)CC(c2ccccc2O)CC3=O)CC1 (centres undefined)	yes
O=C([C@@H]1C[C@H](Oc2ccccc2)CN1C(=O)NC1CCCCC1)N1CCCC1	no
CCNC(=O)N1C[C@@H]2OCC(=O)N(CCOC)[C@@H]2C1	no
CCC(CC)C(=O)N1CCC(N2CCCC(C(=O)NCc3ccccc3)C2)CC1 (centres undefined)	yes
Cc1cc(CNC(=O)C2CCCN(C3CCN(CCc4ccccc4)CC3)C2)on1 (centres undefined)	no
CN(C)C(=O)c1cccnc1N1CC2CC(C1)[C@H]1CCCC(=O)N1C2 (some centres undefined)	no
CC(=O)N[C@@H]1Cc2ccccc2[C@H]1n1ccnc1-c1cc2n(n1)CCNC2	no
COc1ccccc1-c1cc(-c2cn[nH]c2)c2cncn2c1	yes
CC(C)NC(=O)Cc1ccc(N(Cc2cccc(F)c2)C(=O)c2ccco2)cc1	no
CC(C)=CCC1(CO)CCCN(Cc2ccccc2OCCO)C1 (centres undefined)	yes
Cc1ccc(C(=O)Nc2ccc3c(N4CCCCC4)ncnc3c2)s1	yes
O=C(O)COc1ccccc1CN1CC[C@H]2NCCC[C@]2(C(=O)O)C1	no
CCn1c(=O)c2cc(C(=O)NCCc3ccc(Cl)cc3)sc2c2ccccc21	no
CCCCNC(=O)C1CCN(C(=O)c2nnn3c2COC(c2ccc(C)cc2)C3)CC1 (centres undefined)	no
CCN(CCCNC(=O)c1cc2c(=O)n(CC)c3ccccc3c2s1)Cc1ccccc1	yes
Cc1noc(C)c1-c1cc(-c2ccccc2Oc2ccccc2)cn2cncc12	yes
COc1cc(-c2ccnc3nc(C4CC4)nn23)cc(OC)c1OC	no
C=CCNC(=O)C1N(C(C)C)C(=O)C12CCCCC2 (centres undefined)	no
COc1ccc(-c2[nH]nc3ncc(-c4ccccc4)nc23)c(C)c1	no
Cc1ccc(C(=O)Nc2ccc3ncnc(N4CCCCC4)c3c2)s1	no
CS(=O)(=O)N(C1CCOCC1)C1CCN(C(=O)CC2CCCC2)CC1	no
Cc1cnn(CCC(=O)N2CC(F)(F)C[C@H]2c2nnc(C)o2)c1	no
COc1ccc(-c2cc(CC3(N(Cc4ccc(CO)o4)Cc4ccc(CO)o4)COC3)no2)cc1	no
O=C1CC2(CCN(C(=O)CCn3ccccc3=O)C2)C(=O)N1 (centres undefined)	no
Fc1ccc(OCc2nc(C3CCNCC3)no2)cc1	no
CNC(=O)[C@@H]1CN(C(=O)c2ccc3ccccc3n2)C[C@H]1COC	no
COc1ccccc1CNC(=O)CN1CCCC(CO)(CC2CC2)C1 (centres undefined)	no
O=C(NCCc1ccc(Cl)cc1)c1ccc2nccn2c1	no
COc1cccc(-c2ccnc3nc(-c4ccccc4OC)nn23)c1	no
Cc1ccsc1-c1[nH]nc2ncc(-c3ccccc3O)nc12	no
Cc1ccccc1-c1[nH]nc2ncc(-c3ccccc3)nc12	yes
Cc1ccc(NC(=O)Nc2ccc(C)n(CC(=O)NCCN3CCCC3)c2=O)cc1	no
COc1ccccc1-c1cc(-c2cn[nH]c2)c2onc(C)c2n1	no
CO[C@H]1[C@H](NC(=O)c2cnc3ccccc3c2)c2ccccc2C12CCNCC2	no
